- ASSAY NAME: Pharmacokinetic model: typical-rat PK from satellite PK experiments, oral dosing
- Type: in vivo, rats
- PROTOCOL CONDITIONS: Sprague-Dawley, plasma, 30 mg
ENDPOINT LABEL: Cmax (nM)
// units = nM; emit number, no label

### Prompt Name the recorded Cmax for COC(=O)C(c1ccccc1)C1CCCCN1 (stereo not shown) [methylphenidate, Methylphenidate] .
### Response 438

###

- ASSAY NAME: Pharmacokinetic model: typical-rat PK from satellite PK experiments, oral dosing
- Type: in vivo, rats
- PROTOCOL CONDITIONS: Sprague-Dawley, plasma, 30 mg
ENDPOINT LABEL: Tmax (s)
Report as a plain number; the unit s is understood.

### Prompt Find the recorded Tmax belonging to COC(=O)C(c1ccccc1)C1CCCCN1 (stereo not shown) [methylphenidate, Methylphenidate] and report it.
### Response 12

###

- ASSAY NAME: Pharmacokinetic model: typical-rat PK from satellite PK experiments, oral dosing
- Type: in vivo, rats
- PROTOCOL CONDITIONS: Sprague-Dawley, plasma, 3 mg
ENDPOINT LABEL: Cmax (nM)
Express the result in nM but write the number alone.

### Prompt GET /values?readout=Cmax&item= COC(=O)C(c1ccccc1)C1CCCCN1 (stereo not shown) [methylphenidate, Methylphenidate]
### Response 44

###

- ASSAY NAME: Pharmacokinetic model: typical-rat PK from satellite PK experiments, oral dosing
- Assay type: in vivo, rats
- PROTOCOL CONDITIONS: Sprague-Dawley, plasma, 10 mg
ENDPOINT LABEL: Tmax (s)
Please state the figure in s; there is no need to write the unit.

### Prompt If you can, please state the reported Tmax value of COC(=O)C(c1ccccc1)C1CCCCN1 (stereo not shown) [methylphenidate, Methylphenidate] .
### Response 12

###

- ASSAY NAME: Pharmacokinetic model: typical-rat PK from satellite PK experiments, oral dosing
- Type: in vivo, rats
- PROTOCOL CONDITIONS: Sprague-Dawley, plasma, 3 mg
ENDPOINT LABEL: Tmax
# output: numeric value plus its unit

### Prompt Requested field: Tmax. Item: COC(=O)C(c1ccccc1)C1CCCCN1 (stereo not shown) [methylphenidate, Methylphenidate]
### Response 12 s
